Tested on: L1210
testDescription: In vitro antitumor activity against wild-type L1210/0 cells
Type: functional, Mus musculus
Readings of LC99 for the listed molecules
Express your answer in µM, writing the number without its unit.

Here is how some molecules turned out for LC99.
{"structureAsSmiles": "O=[P@@]1(N(CCCl)CCCl)N[C@H](OO)C[C@@H](c2ccccc2)O1", "assayMetric": "LC99", "numericReadout": 20}
{"structureAsSmiles": "O=[P@]1(N(CCCl)CCCl)N[C@H](OO)C[C@@H](c2ccncc2)O1", "assayMetric": "LC99", "numericReadout": 53}
{"structureAsSmiles": "O=[P@]1(N(CCCl)CCCl)N[C@H](OO)C[C@@H](CCc2ccccc2)O1", "assayMetric": "LC99", "numericReadout": 13}
{"structureAsSmiles": "O=[N+]([O-])c1ccc([C@@H]2C[C@@H](OO)N[P@](=O)(N(CCCl)CCCl)O2)cc1", "assayMetric": "LC99", "numericReadout": 8}

Let's switch to this molecule now.
Tell me measured LC99 for "CC(C)[C@@H]1C[C@@H](OO)N[P@](=O)(N(CCCl)CCCl)O1" please.
110

* * *

Readings of LC99 for the listed compounds
Tested on: L1210
testDescription: In vitro antitumor activity against wild-type L1210/0 cells
Format: functional, Mus musculus
Express your answer in µM, writing the number without its unit.

{"compound": "O=P1(N(CCCl)CCCl)NC(OO)CCO1 (stereo unspecified) [PERFOSFAMIDE]", "resultUnit": "µM", "LC99": 8}
{"compound": "O=[P@]1(N(CCCl)CCCl)N[C@H](OO)C[C@@H](c2ccccc2)O1", "resultUnit": "µM", "LC99": 9}
{"compound": "Cc1ccc([C@@H]2C[C@@H](OO)N[P@](=O)(N(CCCl)CCCl)O2)cc1", "resultUnit": "µM", "LC99": 5}

Tell me measured LC99 for "O=[P@]1(N(CCCl)CCCl)N[C@H](OO)C[C@@H](c2ccc(F)cc2)O1" please.
7

Tell me measured LC99 for "C[C@@H]1C[C@@H](OO)N[P@](=O)(N(CCCl)CCCl)O1" please.
39

Tell me measured LC99 for "O=[P@]1(N(CCCl)CCCl)N[C@H](OO)C[C@@H](c2cccnc2)O1" please.
36

* * *

testDescription: Half-life in 4:6 acetone/ 1.0 M HEPES buffer, pH 7.4, 37 degree celsius
Format: ADME
assayMetric: half-life (min)
Express your answer in min, writing the number without its unit.

Here is how some compounds turned out for half-life.
{"compound": "O=P1(N(CCCl)CCCl)NC(OO)CCO1 (stereo unspecified) [PERFOSFAMIDE]", "half-life / min": 15}
{"compound": "O=[P@]1(N(CCCl)CCCl)N[C@H](OO)C[C@@H](c2ccc(F)cc2)O1", "half-life / min": 205}
{"compound": "O=[P@]1(N(CCCl)CCCl)N[C@H](OO)C[C@@H](c2cccnc2)O1", "half-life / min": 105}

Tell me measured half-life for "O=[P@]1(N(CCCl)CCCl)N[C@H](OO)C[C@@H](c2ccccc2)O1" please.
130

* * *

Readings of log10(LC99) for the listed compounds
Test system: P388
testDescription: In vitro antitumor activity against cyclophosphamide-resistant P388/CP cells
Format: functional, Mus musculus
# log10 transformed; quantity=LC99; unit=µM

Here is how some compounds turned out for log10(LC99).
{"compound": "O=[N+]([O-])c1ccc([C@@H]2C[C@@H](OO)N[P@](=O)(N(CCCl)CCCl)O2)cc1", "log10(LC99)": 0.48}
{"compound": "O=[P@]1(N(CCCl)CCCl)N[C@H](OO)C[C@@H](c2ccccc2)O1", "log10(LC99)": 1.18}
{"compound": "O=[P@@]1(N(CCCl)CCCl)N[C@H](OO)C[C@@H](c2ccccc2)O1", "log10(LC99)": 1.32}
{"compound": "O=[P@]1(N(CCCl)CCCl)N[C@H](OO)C[C@@H](c2ccncc2)O1", "log10(LC99)": 1.36}
{"compound": "O=[P@]1(N(CCCl)CCCl)N[C@H](OO)C[C@@H](c2cccnc2)O1", "log10(LC99)": 1.53}
{"compound": "O=[P@]1(N(CCCl)CCCl)N[C@H](OO)C[C@@H](CCc2ccccc2)O1", "log10(LC99)": 0.70}
{"compound": "Cc1ccc([C@@H]2C[C@@H](OO)N[P@](=O)(N(CCCl)CCCl)O2)cc1", "log10(LC99)": 0.48}
{"compound": "O=P1(N(CCCl)CCCl)NC(OO)CCO1 (stereo not given) [PERFOSFAMIDE]", "log10(LC99)": 1.78}

Tell me measured log10(LC99) for "O=[P@]1(N(CCCl)CCCl)N[C@H](OO)C[C@@H](c2ccc(F)cc2)O1" please.
0.70

Tell me measured log10(LC99) for "C[C@@H]1C[C@@H](OO)N[P@](=O)(N(CCCl)CCCl)O1" please.
1.84
